The measurements presented in this section are drawn from patent US10407422B2.

Target: myeloperoxidase (MPO) (Homo sapiens (Human))
Experiment: MPO peroxidation assay (Amplex Red assay)
Format: biochemical
Conditions: potency range class
Experimental: MPO Peroxidation Assay (Amplex Red Assay) MPO peroxidation activity was measured in 100 mM KPi (pH 7.4) by utilizing the non-fluorescent reagent Amplex Red (Invitrogen Cat. #A12222) which can be oxidized to the highly fluorescent resorufin. Amplex Red is oxidized by the peroxidase action of MPO to resorufin. […] Kinetic determinations were carried out immediately on a Perkin Elmer Envision (15 minute kinetic read, Ex: 535 nm, Em: 590 nm). […]
pIC50: −log10 of the molar value.
readout: pIC50

Recorded results for 2 molecules are shown here.
Nc1cc(Cc2cnn(Cc3ccc4c(c3)NCCC4)c2)c2nn[nH]c2n1: 5.00 to 6.00
Cc1nc(-c2cccc(Cn3cc(Cc4cc(N)nc5[nH]nnc45)cn3)c2)no1: 7.00 to 9.00

# next molecule below
stdin: Give reported pIC50 value for `Nc1cc(Cc2cnn(Cc3cccc(OC[C@@H]4CCNC4)c3)c2)c2nn[nH]c2n1`
stdout: 7.00 to 9.00

====

biological target: UniProtKB P05164; experiment: MPO peroxidation assay (Amplex Red assay); type: biochemical; details: potency range class
pIC50: −log10 of the molar value.
readout: pIC50

Example results:
Nc1cc(Cc2cnn(Cc3ccc(CNC4CC4)cc3)c2)c2nn[nH]c2n1: 7.00 to 9.00
Nc1cc(Cc2cnn(-c3ccc(F)cn3)c2)c2nn[nH]c2n1: 7.00 to 9.00

Below is a list of compounds. For each, state its recorded pIC50.
1. Nc1cc(Cc2cnn(Cc3ccc(-c4ccccc4)cc3)c2)c2nn[nH]c2n1
2. Nc1cc(Cc2cnn(Cc3cccc(Oc4ccccc4)c3)c2)c2nn[nH]c2n1
3. Nc1cc(Cc2cnn(Cc3ccc(OC(F)F)cc3)c2)c2nn[nH]c2n1
4. Nc1cc(Cc2cnn(Cc3cccc(C4(O)CCNCC4F)c3)c2)c2nn[nH]c2n1 (stereo not drawn)
5. Nc1cc(Cc2cnn(Cc3cccc(C4CCNC4)c3)c2)c2nn[nH]c2n1 (stereo in doubt) [Example 191]

stdout:
7.00 to 9.00
7.00 to 9.00
7.00 to 9.00
7.00 to 9.00
7.00 to 9.00

====

molecular target: UniProt P05164; assay: MPO chlorination assay (APF assay); format: biochemical; conditions: potency range class
pIC50: −log10 of the molar value.
Assignment: determine reported pIC50 for the given molecules.

Worked cases, answers included:
CN(C)Cc1cccc(Cn2cc(Cc3cc(N)nc4[nH]nnc34)cn2)c1: 7.00 to 9.00
Nc1cc(Cc2cnn(CCCC3CCNCC3)c2)c2nn[nH]c2n1: 6.00 to 7.00
N#Cc1cc(Br)cc(Cn2cc(Cc3cc(N)nc4[nH]nnc34)cn2)c1: 6.00 to 7.00
Nc1cc(Cc2cnn(Cc3ccc(Cn4ccnc4)cc3)c2)c2nn[nH]c2n1: 7.00 to 9.00
CS(=O)(=O)c1cccc(Cn2cc(Cc3cc(N)nc4[nH]nnc34)cn2)c1: 6.00 to 7.00

Report pIC50 for every entry below.
1. CN1CC[C@@H](Oc2cccc(Cn3cc(Cc4cc(N)nc5[nH]nnc45)cn3)c2)C1
2. Cc1nnc([C@@H]2C[C@@H](Oc3cccc(Cn4cc(Cc5cc(N)nc6[nH]nnc56)cn4)c3)CN2)o1
3. Nc1cc(Cc2cnn(Cc3ccc4c(c3)OCO4)c2)c2nn[nH]c2n1

stdout:
1. 6.00 to 7.00
2. 5.00 to 6.00
3. 6.00 to 7.00

====

target: myeloperoxidase (MPO) (Homo sapiens (Human), UniProt P05164); assay: MPO peroxidation assay (Amplex Red assay); assay type: biochemical; settings: potency range class
Sequence (P05164 49-745): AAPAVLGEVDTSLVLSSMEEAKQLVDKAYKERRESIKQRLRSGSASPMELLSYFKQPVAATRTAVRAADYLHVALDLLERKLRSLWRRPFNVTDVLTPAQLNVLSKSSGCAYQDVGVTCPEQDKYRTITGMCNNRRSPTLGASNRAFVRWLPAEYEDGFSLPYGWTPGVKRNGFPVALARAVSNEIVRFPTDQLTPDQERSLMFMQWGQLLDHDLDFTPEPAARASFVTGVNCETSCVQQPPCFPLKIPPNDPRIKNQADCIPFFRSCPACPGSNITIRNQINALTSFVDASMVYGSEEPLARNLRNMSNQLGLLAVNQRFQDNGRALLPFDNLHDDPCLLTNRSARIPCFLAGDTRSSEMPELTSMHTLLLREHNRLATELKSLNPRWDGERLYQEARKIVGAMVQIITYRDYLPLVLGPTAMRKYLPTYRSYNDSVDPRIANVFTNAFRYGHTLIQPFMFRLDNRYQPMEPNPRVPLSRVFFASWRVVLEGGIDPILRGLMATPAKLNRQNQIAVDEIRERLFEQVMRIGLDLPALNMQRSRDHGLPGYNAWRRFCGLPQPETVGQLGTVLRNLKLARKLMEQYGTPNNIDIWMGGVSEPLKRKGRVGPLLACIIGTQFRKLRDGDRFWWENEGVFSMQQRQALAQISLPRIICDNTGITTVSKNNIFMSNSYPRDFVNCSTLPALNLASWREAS
readout: IC50

Take a look at these entries with their results.
Nc1cc(Cc2cnn(-c3cccc(F)c3)c2)c2nn[nH]c2n1: 1 to 100 nM
Nc1cc(Cc2cnn(Cc3cccc(OCC4CCc5ccccc54)c3)c2)c2nn[nH]c2n1 (centres unmarked): 101 to 999 nM
Cc1cccc(-n2cc(Cc3cc(N)nc4[nH]nnc34)cn2)c1: 1 to 100 nM
COc1cc(Cn2cc(Cc3cc(N)nc4[nH]nnc34)cn2)cc([C@@H]2CCNC2)c1: 1 to 100 nM
Nc1cc(Cc2cnn(Cc3cccnc3)c2)c2nn[nH]c2n1: 1 to 100 nM
Nc1cc(Cc2cnn(Cc3cccc(-c4ccc(OC(F)(F)F)cc4)c3)c2)c2nn[nH]c2n1: 101 to 999 nM

Dear colleague, could you please provide IC50 for the compounds listed below?
1. Nc1cc(Cc2cnn(Cc3ccc(C(=O)NCc4ncc[nH]4)cc3)c2)c2nn[nH]c2n1
2. Nc1cc(Cc2ccn(-c3ccccc3)n2)c2nn[nH]c2n1

stdout:
["1 to 100 nM", "101 to 999 nM"]
